- System: SF-268
- assay details: NCI tumour cell line growth inhibition, 48 h
Calls of active or inactive are those of the source. Rule as the data show it: active = GI50 up to about 1.1 µM and inactive = higher.
# valid calls are active, inactive; nothing else

- compound: "N#CC(C(=O)CCCC(=O)Nc1ccccc1[N+](=O)[O-])c1c(Cl)cccc1Cl (centres undefined)"
  group: "inactive"
- compound: "O=C1C[S+]([O-])c2ccccc2N1 (centres undefined)"
  group: "inactive"
- compound: "COc1ccc(C(O)c2cc(OC)c(OC)c(OC)c2)cc1 (centres undefined)"
  group: "inactive"

input: Call for entry O=C(/C=C/c1ccc(OCC(=O)N2CCN(c3ccccc3)CC2)cc1)c1ccccc1 :
output: inactive

---

The entries below are paired with their reported GI50.
- Tested on: NCI-H460
- assay details: NCI tumour cell line growth inhibition, 48 h
The source made the active and inactive calls. Cut-off read from the data, not from the text of the source: active = GI50 up to about 1.1 µM and inactive = higher.

Example compounds with recorded GI50:
- compound: "Cn1c(=O)cc(NNc2ccc(Br)cc2)[nH]c1=O"
  GI50: "4.26 µM (inactive)"
- compound: "C/N=c1/ss/c(=N\\C(SC)=[N+](C)C)n1C.[O-][Cl+3]([O-])([O-])[O-]"
  GI50: "4.09 µM (inactive)"
- compound: "CC1C(c2ccccc2)O[B-](F)(c2ccccc2)[NH+]1C (stereo unspecified)"
  GI50: "> 100 µM (inactive)"
- compound: "CN(C)C(=S)/N=c1\\ss/c(=N\\C(=S)N(C)C)n1-c1cccc(Cl)c1"
  GI50: "> 100 µM (inactive)"
- compound: "COC12OCCN(C)C1=CC(=O)C1N=NCC12 (stereo unspecified)"
  GI50: "> 100 µM (inactive)"
- compound: "COc1ccccc1C1C(Cl)C(=O)N1NC(=O)Cc1ccccc1 (stereo unspecified)"
  GI50: "> 100 µM (inactive)"

input: For COc1c(OC(C)=O)c(OC(C)=O)cc2c1-c1ccc(SC)c(=O)cc1C(NC(C)=O)CC2 (stereo unspecified) , what is its reported GI50?
output: 2.9 µM (inactive)

input: For O=C(CSc1nc2nncc-2c(O)[nH]1)c1ccc(Cl)cc1 , what is its reported GI50?
output: > 100 µM (inactive)
